Test system: Quackgrass
TEST_DESCRIPTION: post-emergence herbicidal activity, greenhouse
Assay type: in vivo
CONDITIONS: Table II; 2 WAT; 11.2 kg/h
From the text: A good grade of top soil is placed in aluminum pans having holes in the bottom and compacted to a depth of 0.95 to 1.27 cm. from the top of the pan. […] The pans were returned to the greenhouse and watered as before and the injury to the plants as compared to the control is observed at approximately two and four weeks and the results recorded. […]
Provide the recorded Plant Response Index (H) for the entries that follow.

Worked set:
In [3]: df
Out[3]:
                                   compound                    val
0  CCOC(=O)CNCP(=O)(O)O[Si](c1ccccc1)(c1ccccc1)C(C)(C)C  2 (50-74% inhibition)
1  CCCCOC(=O)CNCP(=O)(O)O[Si](c1ccccc1)(c1ccccc1)C(C)(C)C  1 (25-49% inhibition)
2  CC(C)(C)[Si](OP(=O)(O)CNCC(=O)OCCCl)(c1ccccc1)c1ccccc1 [Ex. 8, Hydrate]  2 (50-74% inhibition)

Moving on to another compound below.
query: Identify measured Plant Response Index (H) corresponding to `CC(C)(C)[Si](OP(=O)(O)CNCC(=O)O)(c1ccccc1)c1ccccc1`
result: 0 (0-24% inhibition)

---

System: Common Lambsquarters
TEST_DESCRIPTION: post-emergence herbicidal activity, greenhouse
Type: in vivo
CONDITIONS: Table III; 2 WAT; 1.1 kg/h; formulated in anhydrous tetrahydrofuran
Description: A good grade of top soil is placed in aluminum pans having holes in the bottom and compacted to a depth of 0.95 to 1.27 cm. from the top of the pan. […] The pans were returned to the greenhouse and watered as before and the injury to the plants as compared to the control is observed at approximately two and four weeks and the results recorded. […]
READOUT_NAME: Plant Response Index (E)

Quick one: give me Plant Response Index (E) for each item below, same order please.
1. CC(C)(C)[Si](OP(=O)(O)CNCC(=O)O)(c1ccccc1)c1ccccc1 [Ex. 5]
2. CCCCOC(=O)CNCP(=O)(O)O[Si](C)(C)C(C)(C)C [Ex. 3]
3. CCOC(=O)CNCP(=O)(O)O[Si](c1ccccc1)(c1ccccc1)C(C)(C)C [Ex. 7]
4. CCCCOC(=O)CNCP(=O)(O)O[Si](c1ccccc1)(c1ccccc1)C(C)(C)C [Ex. 6]

result:
["0 (0-24% inhibition)", "3 (75-99% inhibition)", "4 (100% inhibition)", "3 (75-99% inhibition)"]

---

Provide the recorded Plant Response Index (M) for the entries that follow.
System: Sugar Beet
TEST_DESCRIPTION: post-emergence herbicidal activity, greenhouse
Assay type: in vivo
CONDITIONS: Table III; 2 WAT; 5.6 kg/h

Worked set:
                                   molecule              readout_name                    val
0  CCOC(=O)CNCP(=O)(O)O[Si](c1ccccc1)(c1ccccc1)C(C)(C)C  Plant Response Index (M)  1 (25-49% inhibition)
1  CCCCOC(=O)CNCP(=O)(O)O[Si](c1ccccc1)(c1ccccc1)C(C)(C)C  Plant Response Index (M)  2 (50-74% inhibition)
2  CC(C)OC(=O)CNCP(=O)(O[Si](c1ccccc1)(c1ccccc1)C(C)(C)C)O[Si](c1ccccc1)(c1ccccc1)C(C)(C)C  Plant Response Index (M)  3 (75-99% inhibition)
3  CC(C)(C)[Si](C)(C)OP(=O)(CNCC(=O)OCCc1ccccc1)O[Si](C)(C)C(C)(C)C [Ex. 10, Hydrate]  Plant Response Index (M)  3 (75-99% inhibition)

query: Identify measured Plant Response Index (M) corresponding to `CC(C)OC(=O)CNCP(=O)(O)O[Si](c1ccccc1)(c1ccccc1)C(C)(C)C`
result: 2 (50-74% inhibition)
